// provenance: patent US4705797A

- test: LD50 determined in the mouse, i.p. and per os (Weil method)
- Type: in vivo
- details: in vivo, po, per os, read-out: LD50 os
This listing pairs molecules with measured LD50.
readout kind: LD50 (mg/kg)

> print(dat)
                                   molecule  readout.kind  observed.measurement
1  CC1=C(C(=O)OCC(C)C)C(c2cccc(Cl)c2Cl)C(C(=O)OC(C)CN(C)CCC(c2ccccc2)c2ccccc2)=C(C)N1 (stereo not shown)          LD50                   500
2  COC(=O)C1=C(C)NC(C)=C(C(=O)OCCNCCC(c2ccccc2)c2ccccc2)C1c1cccc([N+](=O)[O-])c1 (stereo not shown)          LD50                   279
3  COC(=O)C1=C(C)NC(C)=C(C(=O)OCCCN(C)CCC(c2ccccc2)c2ccccc2)C1c1cccc([N+](=O)[O-])c1 (stereo not shown)          LD50                   254
4  COC(=O)C1=C(C)NC(C)=C(C(=O)OCCCCN(C)CCC(c2ccccc2)c2ccccc2)C1c1cccc([N+](=O)[O-])c1 (stereo not shown)          LD50                   493

###

- test: LD50 determined in the mouse, i.p. and per os (Weil method)
- Type: in vivo
- details: in vivo, ip, read-out: LD50 i.p.
Criterion: LD50 strictly less than 80 mg/kg. Met: Fulfilled. Not met: Not fulfilled.

molecule	class
COC(=O)C1=C(C)NC(C)=C(C(=O)OCCCN(C)CCC(c2ccccc2)c2ccccc2)C1c1cccc([N+](=O)[O-])c1 (stereo not drawn) [compound 2263]	Not fulfilled
COC(=O)C1=C(C)NC(C)=C(C(=O)OC(C)CN(C)CCC(c2ccccc2)c2ccccc2)C1c1cccc([N+](=O)[O-])c1 (stereo not drawn) [compound 2288]	Fulfilled
COC(=O)C1=C(C)NC(C)=C(C(=O)OCCCCN(C)CCC(c2ccccc2)c2ccccc2)C1c1cccc([N+](=O)[O-])c1 (stereo not drawn) [compound 2361]	Not fulfilled
COC(=O)C1=C(C)NC(C)=C(C(=O)OC(C)(C)CN(C)CCC(c2ccccc2)c2ccccc2)C1c1cccc([N+](=O)[O-])c1 (stereo not drawn) [compound 2375]	Not fulfilled
CC1=C(C(=O)OCCN(C)CCC(c2ccccc2)c2ccccc2)C(c2cccc([N+](=O)[O-])c2)C(C(=O)OC(C)C)=C(C)N1 (stereo not drawn) [compound 2350]	Fulfilled
COC(=O)C1=C(C)NC(C)=C(C(=O)OCCNCCC(c2ccccc2)c2ccccc2)C1c1cccc([N+](=O)[O-])c1 (stereo not drawn) [compound 2279]	Not fulfilled
